The reported measurements were obtained from ChEMBL document CHEMBL4422627.

# measured_target: Mitogen-activated protein kinase 1 (Homo sapiens, UniProt P28482)
# Sequence (P28482 whole entry): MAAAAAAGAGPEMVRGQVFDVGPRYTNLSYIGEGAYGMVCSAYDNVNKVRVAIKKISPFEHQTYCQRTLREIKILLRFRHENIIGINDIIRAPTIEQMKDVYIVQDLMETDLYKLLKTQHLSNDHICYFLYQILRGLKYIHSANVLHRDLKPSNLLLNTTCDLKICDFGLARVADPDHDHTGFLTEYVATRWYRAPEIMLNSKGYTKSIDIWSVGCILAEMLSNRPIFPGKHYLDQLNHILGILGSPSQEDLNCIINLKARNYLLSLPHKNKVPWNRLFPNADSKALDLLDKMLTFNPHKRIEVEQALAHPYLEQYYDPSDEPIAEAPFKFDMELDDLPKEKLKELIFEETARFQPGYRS
# procedure_text: Inhibition of ERK2 (unknown origin) using […] as substrate after 40 mins by ADP-Glo luminescence assay
measured_endpoint: IC50 (nM)

Worked cases, IC50 given:
## Task For the compound `Cn1cc(Nc2nccc(-c3ccc4c(c3)C(=O)N([C@H](CO)c3cccc(Cl)c3)C4)n2)cn1` , report IC50.
## Result 1.1

## Task For the compound O=C1c2cc(-c3ccnc(NC4CCOCC4)n3)ccc2CN1C(CO)c1ccc(Cl)c(Cl)c1 (centres undefined) , report IC50.
## Result 3.1

## Task For the compound `Cn1nccc1Nc1nccc(-c2ccc3c(c2)C(=O)N(Cc2ccc(Cl)c(F)c2)C3)n1` , report IC50.
## Result 5.6

## Task For the compound CC(C)Nc1nccc(-c2ccc3c(c2)C(=O)N(C(CO)c2cccc(Cl)c2)C3)n1 (centres undefined) , report IC50.
## Result 11.2

## Task For the compound O=C1c2cc(-c3ccnc(NC4CCOC4)n3)ccc2CN1C(CO)c1cccc(Cl)c1 (centres undefined) , report IC50.
## Result 5.4

(a) Cn1nnnc1Nc1nccc(-c2ccc3c(c2)C(=O)N(C(CO)c2cccc(Cl)c2)C3)n1 (centres undefined)
(b) O=C1c2cc(-c3ccnc(NC4CCC(O)CC4)n3)ccc2CN1C(CO)c1cccc(Cl)c1 (centres undefined)
## Task Among a and b , whose measured IC50 is the smaller figure? Output the label that corresponds to your choice.
## Result b
